- target or test system: human glucagon receptor (human, UniProt P47871 26-477)
- assay summary: cell-based or functional assay
Starred links: 1 amine or outer side, 2 acyl side, 3 side chain; linkers in the order of their positions; H or OH if unused. Non-standard residues stand in square brackets, D forms with d. No end group written: not given here. ACPP = 2-amino-5-(3-chlorophenyl)pentanoic acid, O=C([C@H](CCCc1cccc(Cl)c1)N[*:1])[*:2]; 2F,4CF3‑APPA = 2-amino-5-(2-fluoro-4-(trifluoromethyl)phenyl)pentanoic acid; Bip(2'-Et-4'-OMe) = CCc1cc(OC)ccc1-c1ccc(C[C@H](N)C(=O)O)cc1; Leu(5,5,5,5',5',5'-F6) = N[C@@H](CC(C(F)(F)F)C(F)(F)F)C(=O)O; Nva(5-(3,5-Me2Ph)) = Cc1cc(C)cc(CCC[C@H](N)C(=O)O)c1; 2F‑APPA = 2-amino-5-(2-fluorophenyl)pentanoic acid; αMePhe(2-F) = C[C@](N)(Cc1ccccc1F)C(=O)O; hhPhe = N[C@@H](CCCc1ccccc1)C(=O)O; aThr = C[C@H](O)[C@H](N)C(=O)O; CNB = not defined here; Ac3c = NC1(C(=O)O)CC1; Aib = CC(C)(N)C(=O)O
metric: inhibition of cAMP production, 1 nM (pmol/ml/µg prt)

Record summary for H[Aib]QGTFTSD[Bip(2'-Et-4'-OMe)][ACPP] [Seq. ID. No. 19: H-Aib-QGTFTSD-Bip(OMe)-(ACPP)] : reported inhibition of cAMP production, 1 nM = 0

Record summary for H[Aib][CNB]G[aThr][αMePhe(2-F)]TSD[Bip(2'-Et-4'-OMe)][hhPhe] (reading uncertain) [Seq. ID. No. 110: H-Aib-(CNB)-G-T(allo)-(α-Me-2F-Phe)-TSD-Bip(OMe)-(APPA)] : reported inhibition of cAMP production, 1 nM = 18

Record summary for HSQGTFTSD[Bip(2'-Et-4'-OMe)][2F,4CF3‑APPA] [Seq. ID. No. 49: HSQGTFTSD-Bip(OMe)-(2F, 4CF3-APPA)] : reported inhibition of cAMP production, 1 nM = 10

I = Ac-H[Aib][Leu(5,5,5,5',5',5'-F6)]GT[αMePhe(2-F)]TSD[Bip(2'-Et-4'-OMe)][2F‑APPA] [Seq. ID. No. 212: CH3CO-H-Aib-(Hfl)-GT-(α-Me-2F-Phe)-TSD-Bip(OMe)-(2F-APPA)]
II = H[Ac3c]QGTFTSD[Bip(2'-Et-4'-OMe)][Nva(5-(3,5-Me2Ph))] [Seq. ID. No. 22: H-(ACP)-QGTFTSD-Bip(OMe)-(ADMP)]
Param metric = inhibition of cAMP production, 1 nM; output whichever of I , II has the minimum value. // respond with label for picked entry
I
